Reference source: the DeepSol protein solubility set

Assay: soluble on expression in E. coli; label from the status in PepcDB or PDB records
measuredParameter: soluble on expression in E. coli

monomerSequence: HHMSAIKPDMKINLRMEGNVNGHHFVIDGDGTGKPFEGKQSMDLEVKEGGPLPFAFDILTTAFHYGNRVFAEYPDHIQDYFKQSFPKGYSWERSLTFEDGGICIARNDITMEGDTFYNKVRFHGVNFPANGPVMQKKTLKWEPSTEKMYVRDGVLTGDITMALLLEGNAHYRCDSRTTYKAKEKGVKLPGYHLVDHCIEILSHDKDYNKVKLYEHAVAHSGLPDNARR
measuredParameter: soluble on expression in E. coli
valueMeasured: soluble
//
monomerSequence: MARKNQKAPWEPEEEIIWVSKSEMKRDMEELQKLGEELVGLKPAVLEKFPLSEDLREAIADAQRFKNEARRRQLQRIGKLMRYEDPEPIQAALDKVRNKHSQATAALHKLEMLRDRVVEEGDKAIDDVMELYPEADRQRLRQLARQAAKEKKAGKPAKSYREIFQILKALNEEE
measuredParameter: soluble on expression in E. coli
valueMeasured: soluble

* * *

Assay: soluble on expression in E. coli; label from the status in PepcDB or PDB records
measuredParameter: soluble on expression in E. coli

monomerSequence: MSPLWLVVFIVPLASGISLSDCSKKNSCYGSPVNCQPGIDCHVLLRFEDDGTLDVHLQNFTAPDGYVALAYNSNQNAPTEYLICIPHERKRLRGISSQGEIITITEQNMAQYVAQMDTNTFICSFVGKEIPSNFRMQSNFVVSEGLFANESNIPTTYKLEPISTDSVFFHPIAATIGRQDEALSEDEEKLATDLLGKVQRLSDHDSESTDMEAILNEKNRFTIEEFEEKLFSAMSNRRRPIKKFEREEEDQDDDEYSEVEEKESHPKKRREHKKGRHTRVLSDEQEEDYDQYEDDMPSKKRKRPFNSEELENGEDVDFGKKSNKNSQKGTFDGQRQR
valueMeasured: not soluble
--
monomerSequence: MGSDKIHHHHHHMSIINDEKLRKYVPEERLDKVKERLEILDTYDLSYITSNFIWKGRRFSPEQVWPIKIYYGKADRELAEKIEKEFRRFVALTIVFPKRLFTASGAVDLYWHFLILHTKEYEKFSKSVWGIPRYDNVLLKKLLNNDDNSFRLRFNLKPDNVNEITILPKKALESLDDKTLDRVLMLERLDLSPISENLLHTIDEFKFVPEQRFPLIAHFGKLDNNIVKRIELEFKKWMALNIAYGGKELNYAAPSGVVDMYFHLFILHTILYKQFCEIFFGKFIHHPLGELF
valueMeasured: not soluble
--
monomerSequence: MRAERRKQLFRLLGDLPDRRPISVETLRIEEREENIVETLLLDLNGHEKAPAYFVKPKKTEGPCPAVLFQHSHGGQYDRGKSELIEGADYLKTPSFSDELTSLGYGVLAIDHWGFGDRRGKAESEIFKEMLLTGKVMWGMMIYDSLSALDYMQSRSDVQPDRIGTIGMSMGGLMAWWTAALDDRIKVCVDLCSQVDHHVLIKTQNLDRHGFYYYVPSLAKHFSASEIQSLIAPRPHLSLVGVHDRLTPAEGVDKIEKELTAVYAGQGAADCYRVVRSASGHFETAVIRHEAVRFLQKWLLEHHHHHH
valueMeasured: not soluble

* * *

Assay: soluble on expression in E. coli; label from the status in PepcDB or PDB records

monomerSequence: MSLDTVVKVGFAAPLTGPNANYGKDLENGVKMALDDAKAQGVKINGQPVTFQLVAEDDQADPRIGVQVAQKLIDEGVSVVVGHFNSGTTIPASNLYEKAGLPDIDPAATNPTISSRGFKNMFMVISSDAQNAGTAGAYAVETTKAKRIAVIDDRTAFGQGEADEFVKAVKAHGGDIIDREYTTNQATDFKTQLTNLKAKNPDLIFVGALNPQAAGIMKQMNQLGIKAQYVGGGGVKDIDFIKLAGDVSEGAMAWEYGRPLDSTPVGAKFAERFKQKFGEDVLSYAPFGYDAAWAAIKAMQAANSTKPDDYRSKLQSISFEGITGHIEFNANGSLKNGSSTVYQVKNGQWVTVKTVSGEGHHHHHH
soluble on expression in E. coli: soluble
//
monomerSequence: MGSSHHHHHHSSGLVPRGSHMILTLTLNPSVDISYPLTALKLDDVNRVQEVSKTAGGKGLNVTRVLAQVGEPVLASGFIGGELGQFIAKKLDHADIKHAFYNIKGETRNCIAILHEGQQTEILEQGPEIDNQEAAGFIKHFEQLLEKVEAVAISGSLPKGLNQDYYAQIIERCQNKGVPVILDCSGATLQTVLENPYKPTVIKPNISELYQLLNQPLDESLESLKQAVSQPLFEGIEWIIVSLGAQGAFAKHNHTFYRVNIPTISVLNPVGSGDSTVAGITSAILNHENDHDLLKKANTLGMLNAQEAQTGYVNLNNYDDLFNQIEVLEV
soluble on expression in E. coli: soluble

* * *

Assay: soluble on expression in E. coli; label from the status in PepcDB or PDB records

monomerSequence: MSLIDIHNHILPNIDDGPTNETEMMDLLKQATTQGVTEIIVTSHHLHPRYTTPIEKVKSCLNHIESLEEVQALNLKFYYGQEIRITDQILNDIDRKVITGINDSRYLLIEFPSNEVPHYTDQLFFELQSKGFVPIIAHPERNKAISQNLDILYDLINKGALSQVTTASLAGISGKKIRKLAIQMIENNLTHFIGSDAHNTEIRPFLMKDLFNDKKLRDYYEDMNGFISNAKLVVDDKKIPKRMPQQDYKQKRWFGLEGHHHHHH
soluble on expression in E. coli: soluble
//
monomerSequence: DAKEKRLREIQFEKEMIERDMREYRGFSRAVRAVFEEKERFPGLVDVVSNLIEVDEKYSLAVSVLLGGTAQNIVVRNVDTAKAIVEFLKQNEAGRVTILPLDLIDGSFNRISGLENERGFVGYAVDLVKFPSDLEVLGGFLFGNSVVVETLDDAIRMKKKYRLNTRIATLDGELISGRGAITGGREERSSNVFERRIKLKHLEQEMEETERQI
soluble on expression in E. coli: soluble
//
monomerSequence: MDRKIVQLIHNFSGTEKLKAAVFSHDEQCFFDFVSFDELNSKLTGFLLFDSLEKLFKLVETIQQKRSWLYVDELWLINTATENQQLNEVSVWLVKKELAQVGVLTQLDTSLVKLLMASKNTDSALYNTYIKPVELQQFTQTPAPDNVNAEQSHLTLESTTDLNNSQLANTPALWEVEQTTQELLPTMDFSKFIDELDQITKNFSDLELEPLSFNEGFDEWNQE
soluble on expression in E. coli: soluble

* * *

Assay: soluble on expression in E. coli; label from the status in PepcDB or PDB records

monomerSequence: MGSDKIHHHHHHMQQVISDIMTFRGSHFELGVKTGKWLQQTPLLKNREKEWKKRVPRFDIDVNETYQIFQTYAPQIWEELMGLQSILKMPTRQIILNFGHYRFTDLKESGCTVFQGKDFMVRNYDYHPATYDGRYLLYQPTDSGLAQIGPVSRVTGRMDGMNESGLTMGYNFMHRKKPANGFVCYMIGRLILENCRNVTEAIQLLKEIPHRSSFSYILMDKSLNHAIVEVTPRSIDVRYDNICTNHFEILTHENRNYTKESKERLARTISQTNDNLDMTTAFKLFNNPQYEIYSKLFKSWSGTIHTSMYQPETLTAYFTLGENAPPEIIDFKSWLDGQDLNITHFTGNIDTDLTFANK
soluble on expression in E. coli: not soluble
//
monomerSequence: MAHHHHHHMAPLKTQAPSNRSLLGYPLRRAAAMEMLYGGICIQHLAQPPFPLRTIQSESLPPPSLQGERDDLELEVKDSTGNVMGYRLFPVNIGIRARTESVRVRSEDCYKRFLAQKHCAAAGVPLQFPAPSSITNSNCLATPRAASHFHPPSSSLSLFTRPADSQGGDVGRTTPADVAAYHPRAWRPYQMLKPMPHNWGPAVRSSGVRGPHMQLLQERIDKKGFGWKRKSRSLWQQDISTAGFRPKRYF
soluble on expression in E. coli: not soluble
//
monomerSequence: MGSDKIHHHHHHMASPINESRIGYLYEAVRCGTVRAAADYLDVAPSAVSRQIALLEEELAIALVERNKRGVRPTEAGALLIEYFRQQRSHQGDLIAKLQEIRGLRRGTIAVVMGEGFASTMVSGPIKQYCEAYPEISITLDLCSTNEVMRRVSEDEAEIGLVFNPASDARIVSRVGSRQPMHAIVSPAFPLVGKVQSVTLRDMLPYPLALTHPEHGTRRLVDAAMLLEKVRLTPAITTNSATILKLFAKSNLGFTLLTPISIAAELAAGELVAIPVENRLLQSPEAHLVTRAGRQLSPAANRLLQRLTAQINQYAQYGSAS
soluble on expression in E. coli: not soluble

* * *

Assay: soluble on expression in E. coli; label from the status in PepcDB or PDB records
measuredParameter: soluble on expression in E. coli

monomerSequence: MAHHHHHHMSTKLEQENCKLLENIEVISTWSSNNDSNMESFVEPSELDIKDDNEKCLNILNDNLIYDFEKEEDEKKKKNKKNEKSSSNIDLEYDTMKKYIKCIIHNKEKEEFYSFMKYICDSDLFLTFVQLFLDLIKNKDSNLNPHDYLINFFQINIEEENNTNSIKRKNLIKENNFYKKQNEELKKQINIIQVEIMDMKKKNMCNYITNFFFKDNKQEYDASKIFQKVNLYYENIRIEPPFYFTKDTFNLFINYLSDNKRNYIYNIITDMYNIYETNHTLFITKFYKKLTNFIEFYRSFDK
valueMeasured: not soluble

monomerSequence: FFALDYKRTEYVQYEDDEYYYYVKAVPKLNVASEDVRIKHINAKKTKKTSDIRDMKKTSSHRAESGYQAASAEEDDDILFYDNDDK
valueMeasured: not soluble
